System: HCT116 cells
Assay: 5-fluorouracil IC50 in HCT116 cells alone or co-treated with sodium butyrate or 5-azacytidine
Assay type: cell-based, Human
Details: Homo sapiens, HCT-116; HCT116 cells, 72 hours; co-treatment sodium butyrate 0.1 mM or 5-azacytidine 1 μM; three independent experiments; read-out: IC50 of 5-fluorouracil (μM) Mean ± SD
Description: Human colon cancer cell line LS174T (ATCC® CL-188™) and WiDr cells (ATCC CCL-218™) were maintained in alpha modification of Eagle's minimum essential medium (α-MEM) containing 1.5 g/L sodium bicarbonate and 10% fetal bovine serum (FBS). HCT116 cells (ATCC® CCL-247™) were cultured in McCoy's 5A medium containing 1.5 g/L sodium bicarbonate, 4.5 g/L glucose, 10 mM HEPES, 1.0 mM sodium pyruvate and 10% FBS. […]
measured_metric: IC50 (µM)
Give a bare numeral; the unit µM is implied.

Problem: Give the value of IC50 reported for the following: O=c1[nH]cc(F)c(=O)[nH]1 [5-fluorouracil]
Solution: 4.39
